Where do the numbers come from? From patent US20140155384A1.

# measurement_target: human recombinant adrenergic α1D receptor (Homo sapiens, UniProt P25100)
# Construct: expressed in transfected cells; host or cells: HEK-293
# Sequence (P25100 whole entry): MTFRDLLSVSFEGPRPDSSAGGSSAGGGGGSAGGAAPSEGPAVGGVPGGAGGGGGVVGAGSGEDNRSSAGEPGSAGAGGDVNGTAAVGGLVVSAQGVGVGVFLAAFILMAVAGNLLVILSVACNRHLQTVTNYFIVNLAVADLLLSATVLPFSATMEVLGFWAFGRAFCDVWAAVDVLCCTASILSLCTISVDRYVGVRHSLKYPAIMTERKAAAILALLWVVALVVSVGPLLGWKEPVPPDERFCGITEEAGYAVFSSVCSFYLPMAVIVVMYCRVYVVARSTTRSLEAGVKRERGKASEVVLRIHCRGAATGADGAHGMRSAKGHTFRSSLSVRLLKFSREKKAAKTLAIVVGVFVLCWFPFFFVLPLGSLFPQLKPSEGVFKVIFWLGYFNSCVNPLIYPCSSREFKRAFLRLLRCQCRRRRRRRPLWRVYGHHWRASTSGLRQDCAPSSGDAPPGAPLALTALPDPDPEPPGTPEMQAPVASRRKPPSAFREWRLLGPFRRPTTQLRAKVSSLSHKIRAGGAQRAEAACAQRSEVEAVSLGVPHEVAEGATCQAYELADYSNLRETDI
# test_details: Radioligand binding, adrenergic α1D receptor ([3H]Prazosin)
# condition_description: 0.1 μM compound; HEK-293 cells; 0.6 nM [3H]Prazosin; read-out: Percentage inhibition of ligand binding, Adrenergic α1D
endpoint_name: inhibition at 0.1 µM (%)
Write the value in % as a bare number.

For this compound ( Cc1ccc2c(c1)c1c(n2-c2ccccc2-c2ccc(C)nc2)CCN(C)C1 ), measured inhibition at 0.1 µM is 65

For this compound ( Cc1cc(C)c2c(c1)c1c(n2-c2cscc2-c2ccncc2)CCN(C)C1 ), measured inhibition at 0.1 µM is 8

For this compound ( Cc1ccc2c(c1)c1c(n2-c2cccc(-c3cnn(C)c3)c2)CCN(C)C1 ), measured inhibition at 0.1 µM is 8

For this compound ( COc1ccc(-c2cscc2-n2c3c(c4cc(C)ccc42)CN(C)CC3)cc1 ), measured inhibition at 0.1 µM is 79

---

Field: inhibition at 0.1 µM. Provide a value for each of the molecules that follow.
# measurement_target: human recombinant adrenergic α2B receptor (Homo sapiens, UniProt P18089)
# Construct: expressed in transfected cells; host or cells: CHO-K1
# Sequence (P18089 whole entry): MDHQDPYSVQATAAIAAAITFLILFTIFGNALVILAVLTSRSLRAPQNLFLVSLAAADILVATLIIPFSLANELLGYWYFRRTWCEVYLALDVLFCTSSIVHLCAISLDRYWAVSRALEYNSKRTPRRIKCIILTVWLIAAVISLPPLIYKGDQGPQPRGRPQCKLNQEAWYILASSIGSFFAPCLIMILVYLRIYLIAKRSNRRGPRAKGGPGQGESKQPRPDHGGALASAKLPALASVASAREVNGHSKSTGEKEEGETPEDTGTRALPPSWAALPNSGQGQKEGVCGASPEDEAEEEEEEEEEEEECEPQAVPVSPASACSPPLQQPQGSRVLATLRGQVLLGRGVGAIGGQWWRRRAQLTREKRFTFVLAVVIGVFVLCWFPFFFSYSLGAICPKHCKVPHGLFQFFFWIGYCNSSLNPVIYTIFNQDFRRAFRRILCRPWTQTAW
# test_details: Radioligand binding, adrenergic α2B receptor ([3H]Rauwolscine)
# condition_description: 0.1 μM compound, CHO-K1 cells, read-out: Percentage inhibition of ligand binding, Adrenergic α2B
Write the value in % as a bare number.

Sample Cc1ccc2c(c1)c1c(n2-c2cccc(-c3ccnn3C)c2)CCN(C)C1 , system: human recombinant adrenergic α2B receptor (Homo sapiens, UniProt P18089). Its inhibition at 0.1 µM is 18

Sample Cc1ccc2c(c1)c1c(n2-c2ccccc2-c2cc3ccccc3s2)CCN(C)C1 , system: human recombinant adrenergic α2B receptor (Homo sapiens, UniProt P18089). Its inhibition at 0.1 µM is 97

Sample Cc1ccc2c(c1)c1c(n2-c2ccccc2-c2c(C)noc2C)CCN(C)C1 , system: human recombinant adrenergic α2B receptor (Homo sapiens, UniProt P18089). Its inhibition at 0.1 µM is 21

Sample Cc1ccc2c(c1)c1c(n2-c2ccc(-c3ccc(S(N)(=O)=O)cc3)cn2)CCN(C)C1 , system: human recombinant adrenergic α2B receptor (Homo sapiens, UniProt P18089). Its inhibition at 0.1 µM is 83

---

# measurement_target: human recombinant adrenergic α1D receptor (Homo sapiens)
# Construct: expressed in transfected cells; host or cells: HEK-293
# test_details: Radioligand binding, adrenergic α1D receptor ([3H]Prazosin)
# condition_description: 0.1 μM compound; HEK-293 cells; 0.6 nM [3H]Prazosin; read-out: Percentage inhibition of ligand binding, Adrenergic α1D
inhibition at 0.1 µM of 50% or higher: Satisfied. Under 50%: Not satisfied.

Would you say Cc1cc(C)c2c(c1)c1c(n2-c2cccc3ncccc23)CCN(C)C1 shows inhibition at 0.1 µM at minimum 50%? Not satisfied

Would you say Cc1csc(-c2ccccc2-n2c3c(c4cc(C)ccc42)CN(C)CC3)c1 shows inhibition at 0.1 µM at minimum 50%? Not satisfied

Would you say CNC(=O)c1ccc(-c2ccccc2-n2c3c(c4cc(C)ccc42)CN(C)CC3)cn1 shows inhibition at 0.1 µM at minimum 50%? Satisfied

Would you say Cc1ccc2c(c1)c1c(n2-c2ccccc2-c2cccc3[nH]ncc23)CCN(C)C1 shows inhibition at 0.1 µM at minimum 50%? Satisfied

Would you say Cc1ccc2c(c1)c1c(n2-c2ccc(-c3ccc(S(N)(=O)=O)cc3)cn2)CCN(C)C1 shows inhibition at 0.1 µM at minimum 50%? Satisfied

Would you say Cc1ccc2c(c1)c1c(n2-c2cccc(-c3sccc3C)c2)CCN(C)C1 shows inhibition at 0.1 µM at minimum 50%? Not satisfied

Would you say Cc1ccc2c(c1)c1c(n2-c2cscc2-c2ccc(C)s2)CCN(C)C1 shows inhibition at 0.1 µM at minimum 50%? Satisfied

Would you say Cc1ccc2c(c1)c1c(n2-c2cccc(-c3ccc(S(N)(=O)=O)cc3)c2)CCN(C)C1 shows inhibition at 0.1 µM at minimum 50%? Not satisfied
